# target_entity: MMP-14 (MT1-MMP) (Homo sapiens)
# assay_overview: Ki determination with fluorogenic synthetic substrates, recombinant MMP-14
# conditions: Tris/50 mM HCl buffer, pH 6.8, 10 mM CaCl2, 25° C.; read-out: affinity constant Ki, MMP-14 MT1-MMP
pKi: −log10 of the molar value.
experimental_endpoint: pKi

[1] NC(=O)C(Cc1c[nH]c2ccccc12)NC(=O)C(CCCc1ccccc1)CP(=O)(O)C(Cc1ccccc1)NC(=O)c1cc2ccccc2[nH]1 (stereo not drawn)
[2] NC(=O)C(Cc1c[nH]c2ccccc12)NC(=O)C(CCc1ccccc1)CP(=O)(O)C(Cc1ccccc1)NC(=O)OCc1ccccc1 (stereo not drawn)
Problem: Please indicate which has the smaller reported pKi: 1 , or 2 . To answer, give the label that identifies your chosen option.
Solution: 2

[I] CC(NC(=O)OCc1ccccc1)P(=O)(O)CC(CSCc1ccccc1)C(=O)NC(Cc1c[nH]c2ccccc12)C(N)=O (stereo not drawn)
[II] NC(=O)C(Cc1c[nH]c2ccccc12)NC(=O)C(CCCc1ccccc1)CP(=O)(O)C(Cc1ccccc1)NC(=O)c1cc2cc(Cl)cc(Cl)c2oc1=O (stereo not drawn)
[III] NC(=O)C(Cc1c[nH]c2ccccc12)NC(=O)C(CCCc1ccccc1)CP(=O)(O)C(Cc1ccccc1)NC(=O)CNc1cccc(Cl)c1 (stereo not drawn)
Problem: Task for the reader: rank each entry by its pKi, from the minimum upward. Sort and list the labels as requested.
Solution: II, III, I
